System: S180-bearing mice
test_description: Bio-distribution in tumor-bearing mice
Format: in vivo
particulars: S180-bearing mice, tail vein, 30 min
Protocol: The labeled solution (0.1 mL, 74 KBq) is injected into mice through the tail vein, and the injection time is recorded. Then the mice were killed by cervical dislocation at different time phases (30 minutes, 60 minutes, and 120 minutes), five mice for each time phase, and the organs of interest such as heart, liver, lung, kidney, spleen, stomach, muscle, blood and tumor are taken out after dissection, and measured with a γ-counter for the radioactive count of each organ. […]
Measured Small intestine uptake of individual entries

compound: O=C(CC[N+]#[C][99Tc-5]([C]#[N+]CCC(=O)NC1C(O)OC(CO)C(O)C1O)([C]#[N+]CCC(=O)NC1C(O)OC(CO)C(O)C1O)([C]#[N+]CCC(=O)NC1C(O)OC(CO)C(O)C1O)([C]#[N+]CCC(=O)NC1C(O)OC(CO)C(O)C1O)[C]#[N+]CCC(=O)NC1C(O)OC(CO)C(O)C1O)NC1C(O)OC(CO)C(O)C1O (stereo not shown) [[^99mTc-(CN2DG)6]^+]
Small intestine uptake (% ID/g): 0.44

compound: O=C(CCC[N+]#[C][99Tc-5]([C]#[N+]CCCC(=O)NC1C(O)OC(CO)C(O)C1O)([C]#[N+]CCCC(=O)NC1C(O)OC(CO)C(O)C1O)([C]#[N+]CCCC(=O)NC1C(O)OC(CO)C(O)C1O)([C]#[N+]CCCC(=O)NC1C(O)OC(CO)C(O)C1O)[C]#[N+]CCCC(=O)NC1C(O)OC(CO)C(O)C1O)NC1C(O)OC(CO)C(O)C1O (stereo not shown) [[^99mTc-(CN3DG)6]^+]
Small intestine uptake (% ID/g): 0.44

compound: O=C(CCCC[N+]#[C][99Tc-5]([C]#[N+]CCCCC(=O)NC1C(O)OC(CO)C(O)C1O)([C]#[N+]CCCCC(=O)NC1C(O)OC(CO)C(O)C1O)([C]#[N+]CCCCC(=O)NC1C(O)OC(CO)C(O)C1O)([C]#[N+]CCCCC(=O)NC1C(O)OC(CO)C(O)C1O)[C]#[N+]CCCCC(=O)NC1C(O)OC(CO)C(O)C1O)NC1C(O)OC(CO)C(O)C1O (stereo not shown) [[^99mTc-(CN4DG)6]^+]
Small intestine uptake (% ID/g): 1.06

compound: O=C(CCCCC[N+]#[C][99Tc-5]([C]#[N+]CCCCCC(=O)NC1C(O)OC(CO)C(O)C1O)([C]#[N+]CCCCCC(=O)NC1C(O)OC(CO)C(O)C1O)([C]#[N+]CCCCCC(=O)NC1C(O)OC(CO)C(O)C1O)([C]#[N+]CCCCCC(=O)NC1C(O)OC(CO)C(O)C1O)[C]#[N+]CCCCCC(=O)NC1C(O)OC(CO)C(O)C1O)NC1C(O)OC(CO)C(O)C1O (stereo not shown) [[^99mTc-(CN5DG)6]^+]
Small intestine uptake (% ID/g): 0.74

---

System: S180-bearing mice
test_description: Bio-distribution in tumor-bearing mice
Format: in vivo
particulars: S180-bearing mice, tail vein, 30 min
Recorded Bone uptake for the following molecules

molecule: O=C(CCCCC[N+]#[C][99Tc-5]([C]#[N+]CCCCCC(=O)NC1C(O)OC(CO)C(O)C1O)([C]#[N+]CCCCCC(=O)NC1C(O)OC(CO)C(O)C1O)([C]#[N+]CCCCCC(=O)NC1C(O)OC(CO)C(O)C1O)([C]#[N+]CCCCCC(=O)NC1C(O)OC(CO)C(O)C1O)[C]#[N+]CCCCCC(=O)NC1C(O)OC(CO)C(O)C1O)NC1C(O)OC(CO)C(O)C1O (stereo not shown) [[^99mTc-(CN5DG)6]^+]
system_name: S180-bearing mice
Bone uptake: 0.72 ± 0.11 % ID/g

molecule: O=C(CCCC[N+]#[C][99Tc-5]([C]#[N+]CCCCC(=O)NC1C(O)OC(CO)C(O)C1O)([C]#[N+]CCCCC(=O)NC1C(O)OC(CO)C(O)C1O)([C]#[N+]CCCCC(=O)NC1C(O)OC(CO)C(O)C1O)([C]#[N+]CCCCC(=O)NC1C(O)OC(CO)C(O)C1O)[C]#[N+]CCCCC(=O)NC1C(O)OC(CO)C(O)C1O)NC1C(O)OC(CO)C(O)C1O (stereo not shown) [[^99mTc-(CN4DG)6]^+]
system_name: S180-bearing mice
Bone uptake: 0.73 ± 0.23 % ID/g

molecule: O=C(CC[N+]#[C][99Tc-5]([C]#[N+]CCC(=O)NC1C(O)OC(CO)C(O)C1O)([C]#[N+]CCC(=O)NC1C(O)OC(CO)C(O)C1O)([C]#[N+]CCC(=O)NC1C(O)OC(CO)C(O)C1O)([C]#[N+]CCC(=O)NC1C(O)OC(CO)C(O)C1O)[C]#[N+]CCC(=O)NC1C(O)OC(CO)C(O)C1O)NC1C(O)OC(CO)C(O)C1O (stereo not shown) [[^99mTc-(CN2DG)6]^+]
system_name: S180-bearing mice
Bone uptake: 0.32 ± 0.07 % ID/g

molecule: O=C(CCC[N+]#[C][99Tc-5]([C]#[N+]CCCC(=O)NC1C(O)OC(CO)C(O)C1O)([C]#[N+]CCCC(=O)NC1C(O)OC(CO)C(O)C1O)([C]#[N+]CCCC(=O)NC1C(O)OC(CO)C(O)C1O)([C]#[N+]CCCC(=O)NC1C(O)OC(CO)C(O)C1O)[C]#[N+]CCCC(=O)NC1C(O)OC(CO)C(O)C1O)NC1C(O)OC(CO)C(O)C1O (stereo not shown) [[^99mTc-(CN3DG)6]^+]
system_name: S180-bearing mice
Bone uptake: 0.27 ± 0.05 % ID/g
